Values from patent US4237139A

# Test system: uptake of serotonine by synaptosomes of the rat's brain
# PROCEDURE TEXT: Inhibition of the uptake of serotonine by synaptosomes of the rat's brain
# Assay type: biochemical
# PROTOCOL CONDITIONS: in vitro, read-out: 50% inhibiting dose I50, uptake of serotonine by synaptosomes
READOUT KIND: IC50 (nM)
Answer in nM, number only, no unit symbol.

Memo: C=C[C@H]1CNCC[C@H]1CCCc1ccnc2ccccc12 , reported IC50: 35

Memo: CC[C@H]1CNCC[C@H]1CCCc1ccnc2ccc(OC)cc12 , reported IC50: 8

* * *

# PROCEDURE TEXT: Acute toxicity (LD50) in mice
# PROTOCOL CONDITIONS: mouse, in vivo, iv; I.V.; Table 4 (toxicity; species not given); read-out: LD50 I.V.
Exercise: for every item that follows, state its recorded LD50 at 72 h.
Answer in mg/kg, number only, no unit symbol.

Memo: C=C[C@H]1CNCC[C@H]1CCCc1ccnc2ccc(OC)cc12 [Example 1] , reported LD50 at 72 h: 30

Memo: c1ccc2c(CCCC3CCNCC3)ccnc2c1 [Example 4, 4-[3-(4-quinolyl)propyl]piperidine] , reported LD50 at 72 h: 42

Memo: CC[C@H]1CNCC[C@H]1CCCc1ccnc2ccc(OC)cc12 [Example 3] , reported LD50 at 72 h: 21

* * *

# PROCEDURE TEXT: Acute toxicity (LD50) in mice
# PROTOCOL CONDITIONS: mouse, in vivo, po; Table 6, P.O., mice, 3 days of observation; read-out: LD50 P.O.
READOUT KIND: LD50 at 72 h (mg/kg)
Answer in mg/kg, number only, no unit symbol.

Memo: C=C[C@H]1CNCC[C@H]1CCCc1ccnc2ccccc12 , reported LD50 at 72 h: 525

Memo: c1ccc2c(CCCC3CCNCC3)ccnc2c1 [Example 4, 4-[3-(4-quinolyl)propyl]piperidine] , reported LD50 at 72 h: 600

Memo: C=C[C@H]1CNCC[C@H]1CCCc1ccnc2ccc(OC)cc12 , reported LD50 at 72 h: 600

Memo: C=C[C@@H]1CNCC[C@H]1CCCc1ccnc2ccc(OC)cc12 , reported LD50 at 72 h: 225

Memo: CC[C@H]1CNCC[C@H]1CCCc1ccnc2ccc(OC)cc12 , reported LD50 at 72 h: 600

Memo: CC[C@@H]1CNCC[C@H]1CCCc1ccnc2ccc(OC)cc12 , reported LD50 at 72 h: 200

Memo: CC[C@H]1CNCC[C@H]1CCCc1ccnc2ccccc12 , reported LD50 at 72 h: 600

* * *

# System: release of serotonine by human blood platelets
# PROCEDURE TEXT: Release of serotonine from human blood platelets
# Assay type: cell-based
# PROTOCOL CONDITIONS: Homo sapiens, Platelet, read-out: Percentage of increase of the release of serotonine
Exercise: for every item that follows, state its recorded activation at 50 µM.
Answer in %, number only, no unit symbol.

Memo: CN(C)CCCN1c2ccccc2CCc2ccccc21 [Imipramine, reference compound] , reported activation at 50 µM: 13

Memo: C=C[C@H]1CNCC[C@H]1CCCc1ccnc2ccc(OC)cc12 , reported activation at 50 µM: 32

Memo: CC(N)Cc1ccc(Cl)cc1 (stereo not shown) [p-Chloro amphetamine, p-chloro amphetamine, reference compound] , reported activation at 50 µM: 51

Memo: C=C[C@@H]1CNCC[C@H]1CCCc1ccnc2ccc(OC)cc12 , reported activation at 50 µM: 78
